target: Human immunodeficiency virus type 1 protease (Human immunodeficiency virus 1, UniProt Q72874); experiment: Inhibition of plasmid pET9c-PR expressing HIV-1 protease (No inhibition)
Numbered stars: 1 amine (or outer) side, 2 acyl side, 3 side chain; on linkers, the order of the positions; unused ones are H or OH. Bridge positions count the residues as written; N and C are the ends. Peptide text beside a SMILES is read from it. I, II: the chains in the order shown. Naphthalene(2,7-(OC3H6CO)2) = O=C(CCCOc1ccc2ccc(OCCCC(=O)[*:2])cc2c1)[*:1]

COMPOUND | IC50
CC[C@@H](C)[C@H](NC(=O)[C@H](CCC(N)=O)NC(=O)CCCOc1cccc(OCCCC(=O)N[C@@H](CCC(N)=O)C(=O)N[C@H](C(=O)OC)[C@H](C)CC)c1)C(=O)OC | Not Active
COC(=O)[C@@H](NC(=O)[C@H](CC(C)C)NC(=O)[C@@H](NC(=O)CCCOc1cccc(OCCCC(=O)N[C@H](C(=O)N[C@@H](CC(C)C)C(=O)N[C@H](C(=O)OC)C(C)C)C(C)C)c1)C(C)C)C(C)C | Not Active
COC(=O)[C@@H](NC(=O)[C@@H](NC(=O)[C@H](CC(C)C)NC(=O)[C@@H](NC(=O)CCCOc1ccc2ccc(OCCCC(=O)N[C@H](C(=O)N[C@@H](CC(C)C)C(=O)N[C@H](C(=O)N[C@H](C(=O)OC)C(C)C)C(C)C)[C@@H](C)O)cc2c1)[C@@H](C)O)C(C)C)C(C)C (I: TLVV-OMe / II: TLVV-OMe; linker I:N-II:N via Naphthalene(2,7-(OC3H6CO)2)) | Not Active

---

target: Human immunodeficiency virus type 1 protease (Human immunodeficiency virus 1); assay: The compound was tested for HIV-1 protease inhibitory activity against plasmid pET9c-PR expressing HIV-1 protease. activity is expressed as Kid value.
Numbered stars: 1 amine (or outer) side, 2 acyl side, 3 side chain; on linkers, the order of the positions; unused ones are H or OH. Bridge positions count the residues as written; N and C are the ends. Square brackets hold non-standard residues; d marks the D form. Peptide text beside a SMILES is read from it. I, II: the chains in the order shown. ξ: configuration not given here. Naphthalene(2,7-(OC3H6CO)2) = O=C(CCCOc1ccc2ccc(OCCCC(=O)[*:2])cc2c1)[*:1]; Thr(3ξ) = CC(O)[C@H](N)C(=O)O
Each entry below carries its recorded Kid.
ENDPOINT NAME: Kid (µM)

COMPOUND | SYSTEM TESTED | ENDPOINT NAME | MEASUREMENT UNITS | NUMERIC RESULT
COC(=O)[C@H](Cc1ccccc1)NC(=O)[C@H](CC(N)=O)NC(=O)[C@H](CC(C)C)NC(=O)[C@@H](NC(=O)CCCOc1ccc2ccc(OCCCC(=O)N[C@H](C(=O)N[C@@H](CC(C)C)C(=O)N[C@@H](CC(N)=O)C(=O)N[C@@H](Cc3ccccc3)C(=O)OC)C(C)O)cc2c1)C(C)O (some centres undefined) (I: [Thr(3ξ)]LNF-OMe / II: [Thr(3ξ)]LNF-OMe; linker I:N-II:N via Naphthalene(2,7-(OC3H6CO)2)) | Human immunodeficiency virus type 1 protease (Human immunodeficiency virus 1) | Kid | µM | 1
COC(=O)[C@H](CC(C)C)NC(=O)[C@H](CC(C)C)NC(=O)CNC(=O)CCCOc1cccc(OCCCC(=O)NCC(=O)N[C@@H](CC(C)C)C(=O)N[C@@H](CC(C)C)C(=O)OC)n1 | Human immunodeficiency virus type 1 protease (Human immunodeficiency virus 1) | Kid | µM | 4.5
CC[C@@H](C)[C@H](NC(=O)[C@@H](NC(=O)CCCOc1cccc(OCCCC(=O)N[C@H](C(=O)N[C@H](C(=O)N[C@H](C(=O)OC)C(C)C)[C@H](C)CC)C(C)O)n1)C(C)O)C(=O)N[C@H](C(=O)OC)C(C)C (some centres undefined) | Human immunodeficiency virus type 1 protease (Human immunodeficiency virus 1) | Kid | µM | 1.4
COC(=O)[C@@H](NC(=O)[C@H](CC(C)C)NC(=O)[C@@H](NC(=O)CCCOc1ccc2ccc(OCCCC(=O)N[C@H](C(=O)N[C@@H](CC(C)C)C(=O)N[C@H](C(=O)OC)C(C)C)C(C)C)cc2c1)C(C)C)C(C)C | Human immunodeficiency virus type 1 protease (Human immunodeficiency virus 1) | Kid | µM | 0.56
